The reported measurements were obtained from patent US20250295799A1.

For each of the binders below, state its JHH-5 Internalization (MFI).
# SYSTEM: human glypican-3 (GPC3) (human, UniProt P51654 25-554); also: test concentration or dose not given here
# PROTOCOL_NOTES: cell-based or functional assay
Give bare numbers, in MFI.

// Input: H18L6_LC_G34T mAb, v40209 (antibody, human IgG1, kappa, V domains shown, M3-H18L6 chains with the stated light chain point mutation, IgG1/kappa) VH: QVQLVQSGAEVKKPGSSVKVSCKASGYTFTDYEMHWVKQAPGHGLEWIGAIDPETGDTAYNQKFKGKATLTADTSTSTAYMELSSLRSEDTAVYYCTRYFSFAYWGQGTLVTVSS VL: EIVLTQSPATLSLSPGERATISCRSSQSLRHSNTNTYLQWYQQKPGQAPRLLIYKVSNRFSGVPARFSGSGSGTDFTLTISSLEPEDFAVYFCYQSKHVPYTFGGGTKVEIKR . Output its JHH-5 Internalization (MFI) only.
9280

// Input: H18L6_LC_G34S mAb, v40210 (antibody, human IgG1, kappa, V domains shown, M3-H18L6 chains with the stated light chain point mutation, IgG1/kappa) VH: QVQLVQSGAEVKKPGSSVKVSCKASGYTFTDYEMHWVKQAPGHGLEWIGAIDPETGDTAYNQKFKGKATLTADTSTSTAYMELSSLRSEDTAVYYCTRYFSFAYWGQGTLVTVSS VL: EIVLTQSPATLSLSPGERATISCRSSQSLRHSNSNTYLQWYQQKPGQAPRLLIYKVSNRFSGVPARFSGSGSGTDFTLTISSLEPEDFAVYFCYQSKHVPYTFGGGTKVEIKR . Output its JHH-5 Internalization (MFI) only.
8950

***
// Input: H18L6_LC_G34E mAb, v40204 (antibody, human IgG1, kappa, V domains shown, M3-H18L6 chains with the stated light chain point mutation, IgG1/kappa) VH: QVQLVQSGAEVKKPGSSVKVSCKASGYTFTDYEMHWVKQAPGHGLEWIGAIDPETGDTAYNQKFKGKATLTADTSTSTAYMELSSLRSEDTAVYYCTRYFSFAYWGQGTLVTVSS VL: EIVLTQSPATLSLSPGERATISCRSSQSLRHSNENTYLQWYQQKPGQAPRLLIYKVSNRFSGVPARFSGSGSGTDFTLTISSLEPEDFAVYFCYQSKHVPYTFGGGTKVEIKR . Output its JHH-5 Internalization (MFI) only.
5770
